Taken from ChEMBL document CHEMBL1140680.

test system: Staphylococcus aureus; assay: Antibacterial activity against Staphylococcus aureus UC76 SA1 by micro-broth method; type: functional
VALUE TYPE: MIC

In the examples that follow, each entry is paired with its recorded MIC.
>  <CPD SMILES>
CC(=O)NC[C@H]1CN(c2ccc3c(c2)CCCc2c(-c4cc5ccccc5o4)n[nH]c2-3)C(=O)O1

>  <MIC>
2 µg/mL

$$$$
>  <CPD SMILES>
CC(=O)NC[C@H]1CN(c2ccc3c(c2)CCCc2c(-c4nnc(-c5ccccc5)o4)n[nH]c2-3)C(=O)O1

>  <MIC>
> 64 µg/mL

$$$$
>  <CPD SMILES>
CC(C)C(=O)NC[C@H]1CN(c2ccc3c(c2)CCCc2c(C(C)C)n[nH]c2-3)C(=O)O1

>  <MIC>
8 µg/mL

$$$$

Attention now shifts to the item below.
Which MIC reading was recorded for the molecule CC(=O)NC[C@H]1CN(c2cc(F)c3c(c2)CCCc2c(-c4ccno4)n[nH]c2-3)C(=O)O1 ?
1 µg/mL
